Study the reported Ki values for Metabotropic glutamate receptor 5 (Rattus norvegicus, UniProt P31424) given below; they originate from different publications.

A selection of reference data follows.
| CHEMICAL STRING | Ki |
| --- | --- |
| CN(C)c1ccc(S(=O)(=O)c2sc3ncccc3c2-c2ccc(Cl)cc2)cc1 | < 500 nM |
| COc1ccc(-c2c(S(=O)(=O)c3ccc(F)cc3)cnc3cc(F)ccc23)cc1 | 200 to 500 nM |
| Cc1ccc(S(=O)(=O)c2sc3nc(F)ccc3c2-c2ccc(Cl)cc2)cc1F | < 500 nM |
| COc1ccc(S(=O)(=O)c2cnc3c(F)cccc3c2-c2cccc(OC)c2)cc1 | < 200 nM |
| N#Cc1cc(F)cc(S(=O)(=O)c2sc3ncccc3c2-c2ccc(Cl)cc2)c1 | < 500 nM |
| COc1ccc(S(=O)(=O)c2cnc3ccc(Cl)cc3c2N2CCOCC2)cc1Cl | > 500 nM |
| Cc1ccc2ncc(S(=O)(=O)c3ccccc3)c(N3CCOCC3)c2c1 | < 200 nM |
| O=S(=O)(c1ccc(Cl)cc1)c1sc2ncccc2c1-c1cccc(Cl)c1 | < 500 nM |

Query for Metabotropic glutamate receptor 5 (Rattus norvegicus, UniProt P31424): what Ki does the record show for `Cc1ccc(S(=O)(=O)c2cnc3c(F)cccc3c2-c2cccc(Cl)c2)cc1F` ? < 200 nM
